Recorded values, source ChEMBL document CHEMBL4414648.

# METHOD_DESCRIPTION: Total AUC in CD-1 mouse at 5.2 mg/kg, po measured within 6 hrs by LC-MS/MS analysis
# Type: ADME, organism-based
# Parameters: dose 5.2 mg/kg, route oral, time AUCmax
# CONDITIONS: in vivo
VALUE_KIND: AUC at 6 h (ng·h/mL)
I only need the number, in ng·h/mL, no unit after it.

Reported AUC at 6 h, compound O=C(NO)c1ccc(Cn2nnnc2-c2cccs2)cc1 : ____
94

Another: Cn1c(Sc2ccc(C(=O)NO)cc2)nnc1-c1cccs1
123

----------
# METHOD_DESCRIPTION: Apparent volume of distribution at steady state in CD-1 mouse at […], iv measured within 6 hrs by LC-MS/MS analysis
# Assay type: ADME, organism-based
# CONDITIONS: in vivo, read-out: Vdss(app)
VALUE_KIND: Vd at 6 h
Remember to quote the unit after the number.

Tell me the measured Vd at 6 h of O=C(NO)c1ccc(Cn2nnnc2-c2cccs2)cc1 , please.
4.8 L/kg

Let us now turn to Cn1c(Sc2ccc(C(=O)NO)cc2)nnc1-c1cccs1
5.4 L/kg
